# Test system: Mus musculus
# ASSAY_EXPLANATION: Antidepressant activity in Mus musculus albino (mouse) assessed as reversal of reserpine-induced ptosis at 75 umole/kg, ip after 3 hr by chi-square test relative to control
# Assay type: functional

| MOLECULE | Activity, % |
| --- | --- |
| CC1CCC(NC(=O)N(C)C[C@@H]2CCc3ccccc3[C@@H]2Oc2ccc(C(F)(F)F)cc2)CC1 (stereo partly specified) | 80 |
| CC(C)NC(=S)N(C)CCC(Oc1ccc(C(F)(F)F)cc1)c1ccccc1 (stereo unspecified) | 100 |
| CN(CCC(Oc1ccc(C(F)(F)F)cc1)c1ccccc1)C(=O)NC1CCCCC1 (stereo unspecified) | 80 |
| COc1ccc(NC(=S)N(C)CCC(Oc2ccc(C(F)(F)F)cc2)c2ccccc2)cc1 (stereo unspecified) | 100 |
| CN(CCC(Oc1ccc(C(F)(F)F)cc1)c1ccccc1)C(=S)NC(C)(C)C (stereo unspecified) | 100 |
| CN(CCC(Oc1ccc(C(F)(F)F)cc1)c1ccccc1)C(=O)NCCc1ccccc1 (stereo unspecified) | 100 |
| CNCCC(Oc1ccc(C(F)(F)F)cc1)c1ccccc1 (stereo unspecified) | 0 |
| CN(CCC(Oc1ccc(C(F)(F)F)cc1)c1ccccc1)C(=S)NCCc1ccccc1 (stereo unspecified) | 40 |
| CN(C[C@@H]1CCc2ccccc2[C@@H]1Oc1ccc(C(F)(F)F)cc1)C(=O)NC1CCCCC1 | 100 |
| COc1cc(NC(=S)N(C)CCC(Oc2ccc(C(F)(F)F)cc2)c2ccccc2)cc(OC)c1OC (stereo unspecified) | 100 |
| CN(CCC(Oc1ccc(C(F)(F)F)cc1)c1ccccc1)C(=S)NC(=O)c1ccccc1 (stereo unspecified) | 100 |

The reported measurements were obtained from ChEMBL document CHEMBL3046231.
